Recorded percent inhibition of AR, one value per entry.
tested on: AR mRNA; test: Dose-dependent antisense inhibition of human AR in HuVEC cells (electroporation, qRT-PCR RTS3559, IC50); assay type: cell-based; conditions: 750.0 nM; HuVEC, ~16 h; Table 15
Oligonucleotides are written 5' to 3', each unit as a sugar letter and its base; * is a phosphorothioate linkage, no mark a phosphodiester; rarer units and linkages stand in square brackets, end groups in braces. Plain capitals give the bases only. k = constrained ethyl (cEt); [5mC] = 5-methylcytosine; d = 2'-deoxy (DNA)
Field format: number, assumed %, no unit text.

Below are worked cases with known answers.
{"substance": "586124 (kG*kA*kT*dT*dT*dA*dA*dT*dG*dG*dT*dT*dG*k[5mC]*kA*kA; further chemistry not given here) [compound 586124]", "percent inhibition of AR, %": 84}
{"substance": "549372 (kA*kA*kG*dT*dT*dG*dT*dA*dG*dT*dA*dG*dT*k[5mC]*kG*k[5mC]) [compound 549372]", "percent inhibition of AR, %": 66}
{"substance": "586224 (kT*kT*kG*kA*kT*dT*dT*dA*dA*dT*dG*dG*dT*kT*kG*k[5mC]; antisense) [compound 586224]", "percent inhibition of AR, %": 93}
{"substance": "586227 (kT*kG*kA*kT*kT*dT*dA*dA*dT*dG*dG*dT*dT*kG*k[5mC]*kA; antisense) [compound 586227]", "percent inhibition of AR, %": 88}
{"substance": "549458 (kG*kT*kT*dG*dA*dT*dT*dT*dA*dA*dT*dG*dG*kT*kT*kG) [compound 549458]", "percent inhibition of AR, %": 85}

API: the following record is the query input.
IN: Reported percent inhibition of AR for 586225 (kG*kT*kT*kG*kA*dT*dT*dT*dA*dA*dT*dG*dG*kT*kT*kG; antisense) [compound 586225] : what is it?
OUT: 89

* * *

tested on: AR mRNA; assay: Dose-dependent antisense inhibition of human AR in HuVEC cells (electroporation, qRT-PCR RTS3559, IC50); assay type: cell-based; settings: Table 34; 46.9 nM, HuVEC, electroporation, approximately 16 hours
Oligonucleotides are written 5' to 3', each unit as a sugar letter and its base; * is a phosphorothioate linkage, no mark a phosphodiester; rarer units and linkages stand in square brackets, end groups in braces. Plain capitals give the bases only. k = constrained ethyl (cEt); [5mC] = 5-methylcytosine; d = 2'-deoxy (DNA)
measurement-kind: percent inhibition of AR, 46.9 nM (%)
Field format: number, assumed %, no unit text.

IN: Reported percent inhibition of AR, 46.9 nM for 583933 (k[5mC]*kA*kG*d[5mC]*dG*dG*dG*dT*dT*d[5mC]*dT*d[5mC]*d[5mC]*kA*kG*k[5mC]; antisense) [compound 583933] : what is it?
OUT: 22

IN: Would you kindly repeat that for 584002 (k[5mC]*kT*kG*d[5mC]*dT*d[5mC]*dA*d[5mC]*d[5mC]*dA*dT*dG*d[5mC]*k[5mC]*kG*k[5mC]; antisense) [compound 584002] ?
OUT: 12

IN: Would you kindly repeat that for 584006 (kA*k[5mC]*kA*d[5mC]*dA*dA*dG*dT*dG*dG*dG*dA*d[5mC]*kT*kG*kG; antisense) [compound 584006] ?
OUT: 21
